assay: Permeability of compound by PAMPA-BBB assay; type: ADME; settings: read-out: permeability
reported_endpoint: Papp (×10⁻⁶ cm/s)
Write the answer as a number in ×10⁻⁶ cm/s, unit excluded.

Q: I am curious: what Papp value has been reported for COc1ccc(-c2cc(C(=O)N3CCN(Cc4ccccc4)CC3)c3ccccc3n2)cc1 ?
Result: 1.28
